tested on: P. falciparum (NF54 or 3D7 strain); experiment: Assay for P. falciparum proliferation in infected human blood cells (SYBR Green); type: cell-based, Plasmodium falciparum; settings: Plasmodium falciparum, Erythrocyte, 72 h, NF54 or 3D7 infected human erythrocytes, 72 hours; read-out: EC50 (nM), inhibitory efficacy in delaying P. falciparum proliferation in infected human blood cells
readout_kind: EC50 (nM)
A number alone suffices; assume nM.

# annotated cases, reported EC50 shown
{"columns": ["compound", "system_under_test", "EC50 [nM]"],
 "data": [
  ["N#Cc1ccc2c(c1)OCCN2C(=O)c1cn2c(-c3ccc(C(F)(F)F)cc3)cnc2cn1 [Compound 315]", "P. falciparum (NF54 or 3D7 strain)", 2420],
  ["COC(=O)c1ccc(-c2cnc3cnc(C(=O)N(C)c4ccc(C#N)cc4)cn23)cc1 [Compound 166]", "P. falciparum (NF54 or 3D7 strain)", 206],
  ["CN(C(=O)c1cn2c(-c3ccc(C(F)(F)F)c(F)c3)cnc2cn1)c1ccc(Cl)nc1 [Compound 332]", "P. falciparum (NF54 or 3D7 strain)", 3410],
  ["CN(C(=O)c1cn2c(-c3ccc(C(F)(F)F)cc3)cnc2cn1)c1cnc(Cl)cn1 [Compound 91]", "P. falciparum (NF54 or 3D7 strain)", 4300],
  ["CN(Cc1cn2c(-c3ccc(C(N)=O)cc3)cnc2cn1)c1ccc(C#N)cc1 [Compound 223]", "P. falciparum (NF54 or 3D7 strain)", 25]
]}

Now turn to the next compound.
Which measured EC50 belongs to CN(C(=O)c1cn2c(-c3ccc(C(C)(C)C#N)cc3)cnc2cn1)c1ccc(C#N)cc1 [Compound 120] , tested on P. falciparum (NF54 or 3D7 strain)?
147

###

The molecules listed here are annotated with their EC50.
system: P. falciparum (NF54 or 3D7 strain); experiment: Assay for P. falciparum proliferation in infected human blood cells (SYBR Green); assay type: cell-based, Plasmodium falciparum; settings: Plasmodium falciparum, Erythrocyte, 72 h, NF54 or 3D7 infected human erythrocytes, 72 hours; read-out: EC50 (nM), inhibitory efficacy in delaying P. falciparum proliferation in infected human blood cells
Report the figure in nM without appending any unit label.

{"columns": ["molecule", "readout_kind", "reported_measurement"],
 "data": [
  ["CN(C(=O)c1cn2c(-c3ccc(C(N)=O)cc3)cnc2cn1)c1ccc(Cl)nc1 [Compound 161]", "EC50", 1470],
  ["CN(C(=O)c1cn2c(-c3ccc(OCC#N)cc3)cnc2cn1)c1ccc(C#N)cc1 [Compound 273]", "EC50", 186],
  ["CC(=O)Nc1ccc(-c2cnc3cnc(CN(C)c4ccc(C)cn4)cn23)cn1 [Compound 242]", "EC50", 215]
]}

Param readout = EC50; param system = P. falciparum (NF54 or 3D7 strain); param query = CN(C(=O)c1ccc(Cl)nc1)c1cn2c(-c3ccc(C(F)(F)F)cc3)cnc2cn1 [Compound 267] ; response: value
424

###

system: P. falciparum (NF54 or 3D7 strain); assay: Assay for P. falciparum proliferation in infected human blood cells (SYBR Green); type: cell-based, Plasmodium falciparum; conditions: Plasmodium falciparum, Erythrocyte, 72 h, NF54 or 3D7 infected human erythrocytes, 72 hours; read-out: EC50 (nM), inhibitory efficacy in delaying P. falciparum proliferation in infected human blood cells
readout_kind: EC50 (nM)
Your answer is read as nM, so omit the unit and give the number.

Field: example entries. Status: answers known.
{"columns": ["molecule", "EC50 (nM)"],
 "data": [
  ["CN(C(=O)c1cn2c(-c3ccc(C(F)(F)F)cc3)cnc2cn1)c1ccc(C2CCC2)cn1 [Compound 382]", 8400],
  ["CN(C(=O)c1cn2c(-c3ccc(OC(F)F)cc3)cnc2cn1)c1ccc(Cl)nc1 [Compound 429]", 313],
  ["CN(C)CCNC(=O)c1ccc(-c2cnc3cnc(C(=O)N(C)c4ccc(C#N)cc4)cn23)cc1 [Compound 291]", 1160]
]}

Sample COc1ncc(C)cc1N(C)C(=O)c1cn2c(-c3ccc(C(F)(F)F)cc3)cnc2cn1 [Compound 250] — what was its EC50?
302

###

# maps each entry to its EC50
system: P. falciparum (NF54 or 3D7 strain); experiment: Assay for P. falciparum proliferation in infected human blood cells (SYBR Green); assay type: cell-based, Plasmodium falciparum; details: Plasmodium falciparum, Erythrocyte, 72 h, NF54 or 3D7 infected human erythrocytes, 72 hours; read-out: EC50 (nM), inhibitory efficacy in delaying P. falciparum proliferation in infected human blood cells
Use nM as the unit, but write only the number.

Here's what some known entries look like.
{"columns": ["smiles", "system_under_test", "measure_unit", "reported_measurement"],
 "data": [
  ["Cc1cccc(-c2cnc3cnc(C(=O)N(C)c4ccc(C#N)cc4)cn23)c1", "P. falciparum (NF54 or 3D7 strain)", "nM", 7320],
  ["CN(C(=O)c1cn2c(-c3ccc(C(F)(F)F)cc3)cnc2cn1)c1ccc(C#N)cn1", "P. falciparum (NF54 or 3D7 strain)", "nM", 2070],
  ["CN(C(=O)c1cn2c(-c3ncccc3Cl)cnc2cn1)c1ccc(C#N)cc1", "P. falciparum (NF54 or 3D7 strain)", "nM", 6070]
]}

Checklist item: EC50 tested on P. falciparum (NF54 or 3D7 strain), entry "O=C(Nc1nc2cccc(Cl)c2s1)c1cn2c(-c3ccc(C(F)(F)F)cc3)cnc2cn1" , value?
604

Record: "CN(C(=O)c1cn2c(-c3ccc(C(F)F)cc3)cnc2cn1)c1ccc(C#N)cc1"
70

Then this compound: "CN(C(=O)c1cn2c(-c3cnc4[nH]ccc4c3)cnc2cn1)c1ccc(Cl)nc1"
2640

###

system: P. falciparum (NF54 or 3D7 strain); assay: Assay for P. falciparum proliferation in infected human blood cells (SYBR Green); assay type: cell-based, Plasmodium falciparum; settings: Plasmodium falciparum, Erythrocyte, 72 h, NF54 or 3D7 infected human erythrocytes, 72 hours; read-out: EC50 (nM), inhibitory efficacy in delaying P. falciparum proliferation in infected human blood cells
readout_kind: log10 EC50 (log10 of the value in nM)
// do not treat as linear: log10 of EC50, unit nM

Below: 5 compounds and their reported log10 EC50.
{"columns": ["smiles", "log10 EC50"],
 "data": [
  ["CN(C(=O)c1cn2c(-c3ccc(-c4ccn[nH]4)cc3)cnc2cn1)c1ccc(F)cc1", 1.96],
  ["CN(C(=O)c1cn2c(-c3ccc(NC(C)(C)CN)cc3)cnc2cn1)c1ccc(C#N)cc1", 3.09],
  ["CN(Cc1cn2c(-c3ccc4c(cnn4C)c3)cnc2cn1)c1ccc(C#N)cc1", 1.91],
  ["CN(C(=O)c1cn2c(-c3cnc4[nH]ccc4c3)cnc2cn1)c1ccc(C#N)cc1", 1.99],
  ["CC(C)OC(=O)Nc1ccc(-c2cnc3cnc(C(=O)N(C)c4ccc(C#N)cc4)cn23)cc1", 2.61]
]}

So what's the measured log10 EC50 for this one? "CN(C(=O)c1cn2c(-c3ccc(C(F)(F)F)cc3)cnc2cn1)c1ccnc(C(F)(F)F)c1"
3.44

What do we get for "CC(C)[C@@H](N)C(=O)Nc1ccc(-c2cnc3cnc(C(=O)N(C)c4ccc(C#N)cc4)cn23)cc1" ?
2.60

Another compound to check: "CN(C(=O)c1cn2c(-c3ccc(C(F)(F)F)cc3)cnc2cn1)c1ccc(C(F)(F)F)nc1"
3.84

How about this compound: "Fc1ccc2c(c1)CCCN2Cc1cn2c(-c3ccc(C(F)(F)F)cc3)cnc2cn1"
2.17

What would you report for "CN(C(=O)c1cn2c(-c3ccc4c(cnn4C)c3)cnc2cn1)c1ccc(C#N)cc1" ?
1.98

Do the same for "CNC(=O)c1ccc(-c2cnc3cnc(C(=O)N(C)c4ccc(C#N)cc4)cn23)cc1" please
2.12

Record: "CN(C(=O)c1ccc(C#N)cc1)c1cn2c(-c3ccc(C(F)(F)F)cc3)cnc2cn1"
2.25

How about "CN(C(=O)c1cn2c(-c3ccc(C(F)(F)F)cc3)cnc2cn1)c1ccc(F)c(Br)c1" ?
2.27

Queued: "CN(C(=O)c1cn2c(-c3ccc(NC(C)(C)CNC(=O)OC(C)(C)C)cc3)cnc2cn1)c1ccc(C#N)cc1"
3.48

Another: "COc1ccnc(N(C)C(=O)c2cn3c(-c4ccc(C(F)(F)F)cc4)cnc3cn2)c1"
3.07

###

tested on: P. falciparum (NF54 or 3D7 strain); assay: Assay for P. falciparum proliferation in infected human blood cells (SYBR Green); format: cell-based, Plasmodium falciparum; settings: Plasmodium falciparum, Erythrocyte, 72 h, NF54 or 3D7 infected human erythrocytes, 72 hours; read-out: EC50 (nM), inhibitory efficacy in delaying P. falciparum proliferation in infected human blood cells
Each item that follows carries a reported log10(EC50).
Quick note: numbers are log10 of EC50, with nM as the unit.

Worked examples, 4 compounds total:
{"columns": ["smiles", "log10(EC50)"],
 "data": [
  ["Cc1ccc(-c2cnc3cnc(C(=O)N(C)c4ccc(C#N)cc4)cn23)cn1", 3.11],
  ["CN(C(=O)c1cn2c(-c3ccc(C(F)(F)F)cc3)cnc2cn1)c1ccc(F)c(F)c1", 1.61],
  ["COc1ccc(-c2cnc3cnc(C(=O)N(C)c4ccc(C#N)cc4)cn23)c(C)c1", 3.81],
  ["CN(C(=O)c1cn2c(-c3ccc(-n4cccn4)cc3)cnc2cn1)c1ccc(F)c(F)c1", 2.56]
]}

Which log10(EC50) reading was recorded for the compound "CN(C(=O)c1cn2c(-c3ccc(F)cc3)cnc2cn1)c1ccc(C#N)cc1" ?
3.31

Next compound: "CNC(=O)c1ccc(-c2cnc3cnc(C(=O)N(C)c4ccc(C#N)cc4)cn23)cn1"
3.24

Likewise for "CC(=O)Nc1ccc(-c2cnc3cnc(C(=O)N(C)c4ccc(C#N)cc4)cn23)cc1" ?
1.73

Field entry: "CN(C(=O)c1ccc(Cl)cn1)c1cn2c(-c3ccc(C(F)(F)F)cc3)cnc2cn1"
2.44
